Provenance of the data: patent US11559538B2

target: PDE4B (aa 152-484, Uniprot ID Q07343) (Homo sapiens (Human), UniProt Q07343)
Sequence (Q07343 324-656): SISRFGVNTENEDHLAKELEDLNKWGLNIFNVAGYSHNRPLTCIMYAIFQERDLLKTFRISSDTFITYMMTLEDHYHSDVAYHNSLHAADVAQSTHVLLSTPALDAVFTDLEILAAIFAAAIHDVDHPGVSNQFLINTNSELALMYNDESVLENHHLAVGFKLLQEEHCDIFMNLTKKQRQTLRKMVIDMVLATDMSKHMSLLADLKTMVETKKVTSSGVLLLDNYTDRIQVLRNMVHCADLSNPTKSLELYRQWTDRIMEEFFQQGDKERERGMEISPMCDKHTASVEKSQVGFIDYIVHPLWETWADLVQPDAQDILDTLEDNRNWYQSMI
In this section we review reported pIC50 values for a set of compounds.
Formally, pIC50 is defined as -log10 of the concentration c, with c in mol/L.

Record excerpt, results attached:
INSERT INTO measurements (compound, recorded_result) VALUES
  ('CCCOc1cccc(-c2cncc(C3COB(O)C3)c2)c1 (stereo not shown) [Example 145]', 8.17),
  ('CCCOc1nc(-c2cccc(C3COB(O)C3)c2)ccc1OC (stereo not shown)', 9.09),
  ('CCOc1cc(C2COB(O)C2)nc(-c2ccc(OC)c(OCC)c2)n1 (stereo not shown)', 8.94),
  ('CCCOc1c(OC)ccc(-c2cncc(C3COB(O)C3)c2)c1OC (single isomer, unassigned; enantiomer 1) [Example 168]', 9.06),
  ('CCOc1cc(-c2cncc(C3COB(O)C3)c2)cc(C#N)c1OC (single isomer, unassigned)', 9.14),
  ('COc1ccc(-c2cncc(C3COB(O)C3)n2)cc1OC1CCCC1 (stereo not shown)', 8.77),
  ('CCCOc1nc(-c2cccc(C3=CB(O)OC3)c2)ccc1OC', 8.74),
  ('CCOc1ccc(-c2cncc(C3COB(O)C3)c2)cc1OCC (single isomer, unassigned) [Example 98]', 8.95),
  ('CCCOc1cc(-c2nccc(C3COB(O)C3)n2)ccc1OC (stereo not shown)', 8.64),
  ('CCOc1cc(-c2c(C)ncc(C3COB(O)C3)c2C)ccc1OC (single isomer, unassigned; enantiomer 1)', 9.28);

Test system PDE4B (aa 152-484, Uniprot ID Q07343) (Homo sapiens (Human), UniProt Q07343); read-out pIC50; what value for CCOc1cc(-c2cncc(C3COB(O)C3)c2C)c(F)cc1OC (single isomer, unassigned) [Example 142] ?
8.60

Test system PDE4B (aa 152-484, Uniprot ID Q07343) (Homo sapiens (Human), UniProt Q07343); read-out pIC50; what value for CCOc1cc(-c2cc([C@@H]3COB(O)C3)cnc2C)ccc1OC (single isomer, unassigned) ?
8.53

Test system PDE4B (aa 152-484, Uniprot ID Q07343) (Homo sapiens (Human), UniProt Q07343); read-out pIC50; what value for COc1cc(-c2cncc(C3COB(O)C3)c2)ccc1SC (stereo not shown) ?
8.67

====

tested on: IFNγ; assay: Cytokine assay: IFNγ release from PHA-L stimulated human PBMCs; assay type: cell-based; conditions: Homo sapiens, PBMC
measurement-label: pIC50
Formally, pIC50 is defined as -log10 of the concentration c, with c in mol/L.

Record excerpt, results attached:
INSERT INTO measurements (compound, recorded_result) VALUES
  ('CCOc1cc(C2COB(O)C2)nc(-c2ccc(OC)c(OCC)c2)n1 (single isomer, unassigned; enantiomer 1) [Example 223]', 7.65),
  ('CCCOc1cc(-c2cc(C3CB(O)OC3C)cnn2)ccc1OC (stereo not shown)', 7.94);

// lookup pIC50 for COc1ccc(-c2cccc(C3=CB(O)OC3)c2)cc1OC1CCCC1
7.61

// lookup pIC50 for COc1cc(-c2cccc(C3COB(O)C3)c2)ccc1SC (stereo not shown)
7.56

// lookup pIC50 for CCOc1cc(-c2cncc(C3COB(O)C3)c2)cc(C#N)c1OC (single isomer, unassigned) [Example 119]
8.13

// lookup pIC50 for CCCOc1nc(-c2cncc(C3COB(O)C3)c2)ccc1OC (single isomer, unassigned) [Example 61]
8.67

// lookup pIC50 for COc1ccc(-c2nc(C3COB(O)C3)cs2)cc1OC (stereo not shown)
7.60

// lookup pIC50 for CCOc1cc(-c2cncc(C3COB(O)C3)n2)ccc1OC (stereo not shown) [Example 56]
8.44

====

In this section we review reported pIC50 values for a set of compounds.
test system: IL-13; test: Cytokine assay: IL-13 release from PHA-L stimulated human PBMCs; type: cell-based; conditions: Homo sapiens, PBMC, read-out: IL13 IC50
Formally, pIC50 is defined as -log10 of the concentration c, with c in mol/L.

// lookup pIC50 for CCOc1cc(-c2cncc(C3COB(O)C3)c2C(F)F)ccc1OC (stereo not shown)
6.01

// lookup pIC50 for CCOc1cc(-c2cncc(C3COB(O)C3)c2C)c(F)cc1OC (stereo not shown) [Example 141]
6.15

// lookup pIC50 for CCCOc1cc(-c2cncc(C3COB(O)C3)c2)ccc1OC(F)F (single isomer, unassigned) [Example 17]
6.86

====

System: IL-13
Test: Cytokine assay: IL-13 release from PHA-L stimulated human PBMCs
Format: cell-based
Settings: Homo sapiens, PBMC, read-out: IL13 IC50
Protocol: Cytokine inhibitory activity is determined by measuring the effect of test agent on the release of the cytokines IL-4, IL-13 and IFNγ from human peripheral blood mononuclear cells (PBMCs) stimulated with the T-cell mitogen phytohemagglutinin-L (PHA-L). […]
measurement-label: pIC50
Formally, pIC50 is defined as -log10 of the concentration c, with c in mol/L.

Record excerpt, results attached:
INSERT INTO assay_data (compound, measurement_label, recorded_result) VALUES
  ('CCCOc1cc(-c2cncc(C3COB(O)C3)c2C)ccc1OC (single isomer, unassigned) [Example 85]', 'pIC50', 6.27),
  ('COc1ccc(-c2cccc(C3COB(O)C3)c2)cc1OC1CCC1 (stereo not drawn) [Example 184]', 'pIC50', 5.85),
  ('COc1ccc(-c2cccc(C3COB(O)C3)c2)cc1OC (stereo not drawn) [Example 232]', 'pIC50', 6.23),
  ('COc1ccc(-c2cc(C3=CB(O)OC3)ccn2)cc1OC [Example 227]', 'pIC50', 5.59),
  ('CCCOc1cc(-c2cccc(C3(C)COB(O)C3)n2)ccc1OC (stereo not drawn) [Example 29]', 'pIC50', 5.46);

With those in mind, consider the next compound.
// lookup pIC50 for CCOc1cc(-c2cccc(C3COB(O)C3)n2)ccc1OC (stereo not drawn) [Example 233]
6.29

====

In this section we review reported log10 IC50 values for a set of molecules.
tested on: IL-13; assay: Cytokine assay: IL-13 release from PHA-L stimulated human PBMCs; assay type: cell-based; settings: Homo sapiens, PBMC, read-out: IL13 IC50
Parameter value (number): base-10 log of IC50 in µM.

Record excerpt, results attached:
INSERT INTO assay_data (molecule, measurement_label, recorded_result) VALUES
  ('CCCOc1cc(-c2nc(CO)cc(C3COB(O)C3)n2)ccc1OC (stereo not drawn) [Example 57]', 'log10 IC50', -0.62),
  ('CCCOc1nc(-c2cc(C3COB(O)C3)cnc2C)ccc1OC (single isomer, unassigned; enantiomer 1) [Example 231]', 'log10 IC50', 0.47),
  ('CCOc1cc(-c2nc(OC)cc(C3COB(O)C3)n2)ccc1OC (stereo not drawn) [Example 185]', 'log10 IC50', 0.47);

// lookup log10 IC50 for CCCOc1cc(-c2cc(C3CB(O)OC3C)cnn2)ccc1OC (stereo not drawn) [Example 30]
1.00

// lookup log10 IC50 for CCOc1cc(C2COB(O)C2)nc(-c2ccc(OC)c(OCC)c2)n1 (single isomer, unassigned; enantiomer 1) [Example 223]
0.43

// lookup log10 IC50 for COc1ccc(-c2cccc(C3COB(O)C3)c2)cc1OCC(C)C (stereo not drawn) [Example 183]
0.14

// lookup log10 IC50 for COc1ccc(-c2cncc(C3COB(O)C3)c2)cc1OC1CCSCC1 (single isomer, unassigned; enantiomer 1) [Example 170]
0.03

// lookup log10 IC50 for CCOc1cc(-c2c(C)ncc(C3COB(O)C3)c2C)ccc1OC (single isomer, unassigned; enantiomer 1) [Example 205]
0.25

// lookup log10 IC50 for CCCOc1nc(-c2cncc(C3COB(O)C3)c2)c(F)cc1OC (stereo not drawn) [Example 48]
-0.60

====

system: IL-13; test: Cytokine assay: IL-13 release from PHA-L stimulated human PBMCs; format: cell-based; details: Homo sapiens, PBMC, read-out: IL13 IC50
pIC50: −log10 of the molar value.
Decide using pIC50: a value greater than or equal to 6 is yes, a smaller one is no.

INSERT INTO results (molecule, target_of_assay, discrete_label) VALUES
  ('CCOc1cc(-c2cccc(C3COB(O)C3)c2)ccc1OC (stereo not shown)', 'IL-13', 'yes');

Is the recorded value of pIC50 equal to or greater than 6 for this molecule? CCCOc1cc(-c2nccc(C3COB(O)C3)n2)ccc1OC (stereo not shown)
no

Is the recorded value of pIC50 equal to or greater than 6 for this molecule? CCOc1c(OC)cc(F)c(-c2cncc(C3COB(O)C3)c2)c1F (stereo not shown) [Example 163]
no

Is the recorded value of pIC50 equal to or greater than 6 for this molecule? CCOc1cc(-c2cc(C(F)(F)F)cc(C3COB(O)C3)n2)ccc1OC (stereo not shown)
no

Is the recorded value of pIC50 equal to or greater than 6 for this molecule? CCCOc1cc(-c2cncc(C3COB(O)C3)c2)c(F)cc1OC (stereo not shown) [Example 49]
yes

Is the recorded value of pIC50 equal to or greater than 6 for this molecule? CCCOc1cc(-c2nc(C3COB(O)C3)cc(C(F)(F)F)n2)ccc1OC (single isomer, unassigned)
yes

Is the recorded value of pIC50 equal to or greater than 6 for this molecule? CCCOc1cc(-c2nc(OC)cc(C3COB(O)C3)n2)ccc1OC (single isomer, unassigned; enantiomer 2) [Example 225]
no

Is the recorded value of pIC50 equal to or greater than 6 for this molecule? COc1ccc(-c2cncc(C3COB(O)C3)c2)cc1OC (stereo not shown)
no
